- Test system: MDA-MB-468 breast
- PROCEDURE_TEXT: NCI tumour cell line growth inhibition, 48 h; in the data active means GI50 below about 0.43 µM; inactive means the rest
Outcome field: choose from active, inactive

[[record]]
molecule = "C#Cc1cccc(NC(=O)C2CCCCN2C(=O)CCl)c1 (stereo not drawn)"
tested_on = "MDA-MB-468 breast"
class_assignment = "inactive"


Exercise: Hey, what did the test say about `CN1CCN(CCCn2c3c(sc4ncccc43)c(=O)n3nnc(-c4ccccc4)c23)CC1` ?
Solution: inactive

Exercise: Hey, what did the test say about `Cc1c(-c2c(F)cc(C(N)=O)c3[nH]c4c(c23)CC[C@H](C(C)(C)O)C4)cccc1-n1c(=O)c2cccc(F)c2n(C)c1=O` ?
Solution: inactive

Exercise: Hey, what did the test say about C[C@H]1O[C@@H](O[C@H]2[C@@H](O)C[C@H](O[C@H]3[C@@H](O)C[C@H](O[C@H]4CC[C@]5(C)C6CC[C@]7(C)[C@@H](C8=CC(=O)OC8)CC[C@]7(O)C6CC[C@@H]5C4)O[C@@H]3C)O[C@@H]2C)C[C@H](O)[C@@H]1O (stereo partly drawn) ?
Solution: active

Exercise: Hey, what did the test say about `CS(=O)(=O)Nc1cc(-c2ccc3ncnc(Nc4ccc(OCc5ccccn5)c(Cl)c4)c3c2)cnc1Cl` ?
Solution: active

Exercise: Hey, what did the test say about Nc1nc(N)c2c(n1)NC(c1ccc(Cl)cc1)C1CCc3ccccc3C1=N2 (stereo not drawn) ?
Solution: inactive

Exercise: Hey, what did the test say about `O=C(Nc1c(Cl)cccc1Cl)Oc1cccc2cccnc12` ?
Solution: inactive

Exercise: Hey, what did the test say about O=[N+]([O-])c1ccc(NC(c2ccccc2)c2ccc3cccnc3c2O)cc1 (stereo not drawn) ?
Solution: active

* * *

- Tested on: MDA-MB-468 breast
- PROCEDURE_TEXT: NCI tumour cell line growth inhibition, 48 h
Entries and their TGI values follow.

[[record]]
smiles_str = "Cc1c(-c2c(F)cc(C(N)=O)c3[nH]c4c(c23)CC[C@H](C(C)(C)O)C4)cccc1-n1c(=O)c2cccc(F)c2n(C)c1=O"
reported_measurement = "> 100 µM"

[[record]]
smiles_str = "O=C(Nc1n[nH]c2cc(-c3ccc(F)cc3)ccc12)C1CC1"
reported_measurement = "> 16.2 µM"


Exercise: State the recorded TGI for this entry: `Cc1ccccc1N=C(c1ccccc1)C1C(=O)c2ccccc2C1=O`
Solution: > 100 µM

These data points were gathered from PubChem BioAssay (NCI).
